- Tested on: HCC-2998 colon
- Protocol: NCI tumour cell line growth inhibition, 48 h; in the data active = GI50 below about 0.43 µM; inactive = the rest
Parameter call: string, one of y (active), n (inactive)

// query Could you please tell me the result logged for CC1=C2[C@@H](CC1)[C@]1(C)O[C@@](C(C)C)(C[C@H]1OC(=O)CO)[C@H]2OC(=O)C1CC1c1ccccc1 (stereo not given in full) in this assay?
// result n

// query Hi, sorry to bother you, what did the test record for CC(=O)[O-].Cn1ccnc1CNCc1nccn1C.[Cu+2].[O-][Cl+3]([O-])([O-])[O-] ?
// result n

// query Tell me the assay call for CNC(=O)c1c(NC(=O)c2ccc(C(C)(C)C)cc2)sc2c(CN(C)C)c(O)ccc12 please.
// result n

// query How did this test come out for CCOCCCn1c2c(c3c(O)cccc31)C(=O)c1ccccc1-2 ?
// result n

// query How was O=C(Nc1ccccc1)Nc1ccc2cc3ccc(NC(=O)Nc4ccccc4)cc3nc2c1 classified in this test?
// result n

// query Outcome logged for O=C([CH-]C(=O)c1ccccc1)c1ccccc1.[CH-]1CCCCC1.[CH-]1CCCCC1.[CH-]1CCCCC1.[Sn+4] in this assay:
// result n

// query GET /call?item= CCOC(=O)c1cc2c(cc1Cl)SC(=Nc1ccccc1)N(S(=O)(=O)c1ccc(Cl)cc1)S2(=O)=O returns the recorded outcome of this test.
// result n

// query Would you mind telling me which call this test gave O=C(Nc1cccc(O)c1)c1ccc(NC2=C(Cl)C(=O)N(Cc3ccc(Cl)cc3Cl)C2=O)cc1 ?
// result n

// query Called result for COC12C=C/C(=C(/C(=O)OCc3ccccn3)C(=O)CCCCCCCCC3(OC)C=C/C(=C(/C(=O)OCc4ccccn4)C(=O)CCCCCCCC1)O3)O2
// result y

// query Which outcome did this test record for the compound COc1cc(/C=C/C(=O)/C=C/c2ccc(-n3ccnc3C)cc2)ccc1O ?
// result n
